# system_tested: Brd3 (Homo sapiens)
# Sequence (Q15059 whole entry): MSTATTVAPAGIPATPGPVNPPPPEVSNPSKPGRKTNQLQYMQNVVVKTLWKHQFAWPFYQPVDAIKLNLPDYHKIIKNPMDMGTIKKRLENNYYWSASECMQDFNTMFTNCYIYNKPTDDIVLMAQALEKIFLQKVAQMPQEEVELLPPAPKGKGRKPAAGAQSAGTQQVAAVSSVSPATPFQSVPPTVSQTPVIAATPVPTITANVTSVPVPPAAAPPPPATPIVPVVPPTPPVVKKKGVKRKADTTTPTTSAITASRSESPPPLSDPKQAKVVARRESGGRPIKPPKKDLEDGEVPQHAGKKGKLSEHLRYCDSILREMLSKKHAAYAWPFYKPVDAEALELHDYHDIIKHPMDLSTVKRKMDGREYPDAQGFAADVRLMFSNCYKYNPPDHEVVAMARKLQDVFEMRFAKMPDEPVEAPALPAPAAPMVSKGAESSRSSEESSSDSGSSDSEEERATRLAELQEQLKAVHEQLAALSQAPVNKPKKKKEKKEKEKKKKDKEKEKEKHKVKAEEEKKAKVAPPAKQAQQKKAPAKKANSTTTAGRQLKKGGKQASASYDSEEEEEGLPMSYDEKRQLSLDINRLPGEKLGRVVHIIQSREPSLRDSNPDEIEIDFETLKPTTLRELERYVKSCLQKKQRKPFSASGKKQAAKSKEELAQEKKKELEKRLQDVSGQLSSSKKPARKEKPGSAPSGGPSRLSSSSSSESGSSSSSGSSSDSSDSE
# assay_remarks: Concentration-dependent BET degradation, immunoblot, HEK293 cells
# Type: cell-based
# Design: endogenous in cells; host or cells: HEK293
# condition_info: HEK293, Brd3, 6 h treatment, 1 nM-10 μM

>  <molecule>
CCCC(NC(=O)/C(C#N)=C/c1cccc(Br)n1)c1ccc(OCC=NOCC(=O)NCCOCCNC(=O)c2ccc3c(c2)[C@H](Nc2ccc(Cl)cc2)C[C@H](C)N3C(C)=O)cc1 (stereo partly shown)

>  <DC50>
≤ 50 nM

$$$$
>  <molecule>
CCCC(NC(=O)/C(C#N)=C/c1nc(Cl)ccc1Cl)c1ccc(OCCOCCOCCOCCOCCOCCOCCNC(=O)c2ccc(-c3ccc4c(c3)[C@H](Nc3ccc(Cl)cc3)C[C@H](C)N4C(C)=O)cc2)cc1 (stereo partly shown)

>  <DC50>
51 to 500 nM

$$$$
>  <molecule>
CCCC(NC(=O)/C(C#N)=C/c1cccc(Br)n1)c1ccc(OCC=NOCC(=O)NCCOCCOCCOCCOCCOCCNC(=O)c2ccc3c(c2)[C@H](Nc2ccc(Cl)cc2)C[C@H](C)N3C(C)=O)cc1 (stereo partly shown)

>  <DC50>
≤ 50 nM

$$$$
>  <molecule>
CCCC(NC(=O)/C(C#N)=C/c1nccs1)c1ccc(OCCOCCOCCOCCOCCOCCOCCNC(=O)c2ccc(-c3ccc4c(c3)[C@H](Nc3ccc(Cl)cc3)C[C@H](C)N4C(C)=O)cc2)cc1 (stereo partly shown)

>  <DC50>
≤ 50 nM

$$$$

----------
# system_tested: Brd4 (L) (Homo sapiens)
# Construct: endogenous in cells; host or cells: HEK293, HeLa
# assay_remarks: Time-dependent BET degradation, immunoblot, HEK293 cells
# Assay type: cell-based
# Design: dose or concentration left out as unconfirmed
# condition_info: timecourse 0-8 h
Examples of compounds with documented Dmax follow.

>  <compound>
CCCC(NC(=O)/C(C#N)=C/c1cccc(Br)n1)c1ccc(OCCOCCOCCOCCOCCOCCOCCNC(=O)c2ccc(-c3ccc4c(c3)[C@H](Nc3ccc(Cl)cc3)C[C@H](C)N4C(C)=O)cc2)cc1 (stereo partly drawn)

>  <Dmax (%)>
100

$$$$
>  <compound>
CCCC(NC(=O)/C(C#N)=C/c1nc(Cl)ccc1Cl)c1ccc(OCCOCCOCCOCCOCCOCCOCCNC(=O)c2ccc(-c3ccc4c(c3)[C@H](Nc3ccc(Cl)cc3)C[C@H](C)N4C(C)=O)cc2)cc1 (stereo partly drawn)

>  <Dmax (%)>
100

$$$$
>  <compound>
CCCC(NC(=O)/C(C#N)=C/c1cccc(Br)n1)c1ccc(OCC=NOCC(=O)NCCOCCOCCOCCOCCOCCNC(=O)c2ccc3c(c2)[C@H](Nc2ccc(Cl)cc2)C[C@H](C)N3C(C)=O)cc1 (stereo partly drawn)

>  <Dmax (%)>
96

$$$$

----------
Entries annotated with measured Dmax
# system_tested: UniProt Q15059
# assay_remarks: Concentration-dependent BET degradation, immunoblot, HEK293 cells
# Format: cell-based
# Parameters: endogenous in cells; host or cells: HEK293
# condition_info: HEK293, Brd3, 6 h treatment, 1 nM-10 μM; read-out: Dmax (%) maximum degradation observed

>  <compound>
CCCC(NC(=O)/C(C#N)=C/c1cccc(Br)n1)c1ccc(OCC=NOCC(=O)NCCOCCNC(=O)c2ccc3c(c2)[C@H](Nc2ccc(Cl)cc2)C[C@H](C)N3C(C)=O)cc1 (stereo partly drawn)

>  <Dmax>
≥ 71%

$$$$
>  <compound>
CCCC(NC(=O)/C(C#N)=C/c1cccc(Br)n1)c1ccc(OCCOCCOCCOCCOCCOCCOCCNC(=O)c2ccc(-c3ccc4c(c3)[C@H](Nc3ccc(Cl)cc3)C[C@H](C)N4C(C)=O)cc2)cc1 (stereo partly drawn)

>  <Dmax>
51 to 70%

$$$$
>  <compound>
CCCC(NC(=O)/C(C#N)=C/c1nc(Cl)ccc1Cl)c1ccc(OCCOCCOCCOCCOCCOCCOCCNC(=O)c2ccc(-c3ccc4c(c3)[C@H](Nc3ccc(Cl)cc3)C[C@H](C)N4C(C)=O)cc2)cc1 (stereo partly drawn)

>  <Dmax>
≥ 71%

$$$$

----------
# system_tested: Brd4 (L) (Homo sapiens, UniProt O60885)
# Construct: endogenous in cells; host or cells: HEK293, HeLa
# assay_remarks: Time-dependent BET degradation, immunoblot, HeLa cells
# Assay type: cell-based
# Parameters: dose or concentration left out as unconfirmed
# condition_info: timecourse 0-8 h

>  <compound>
CCCC(NC(=O)/C(C#N)=C/c1cccc(Br)n1)c1ccc(OCCOCCOCCOCCOCCOCCOCCNC(=O)c2ccc(-c3ccc4c(c3)[C@H](Nc3ccc(Cl)cc3)C[C@H](C)N4C(C)=O)cc2)cc1 (stereo partly drawn) [Example 05IB6]

>  <Dmax (%)>
100

$$$$
>  <compound>
CCCC(NC(=O)/C(C#N)=C/c1nccs1)c1ccc(OCCOCCOCCOCCOCCOCCOCCNC(=O)c2ccc(-c3ccc4c(c3)[C@H](Nc3ccc(Cl)cc3)C[C@H](C)N4C(C)=O)cc2)cc1 (stereo partly drawn) [Example 05IB9]

>  <Dmax (%)>
100

$$$$
>  <compound>
CCCC(NC(=O)/C(C#N)=C/c1nc(Cl)ccc1Cl)c1ccc(OCCOCCOCCOCCOCCOCCOCCNC(=O)c2ccc(-c3ccc4c(c3)[C@H](Nc3ccc(Cl)cc3)C[C@H](C)N4C(C)=O)cc2)cc1 (stereo partly drawn) [Example 05IB10]

>  <Dmax (%)>
100

$$$$
>  <compound>
CCCC(NC(=O)/C(C#N)=C/c1cccc(Br)n1)c1ccc(OCC=NOCC(=O)NCCOCCOCCOCCOCCOCCNC(=O)c2ccc3c(c2)[C@H](Nc2ccc(Cl)cc2)C[C@H](C)N3C(C)=O)cc1 (stereo partly drawn) [Example 05IB3]

>  <Dmax (%)>
79

$$$$
>  <compound>
CCCC(NC(=O)/C(C#N)=C/c1cccc(Br)n1)c1ccc(OCC=NOCC(=O)NCCOCCNC(=O)c2ccc3c(c2)[C@H](Nc2ccc(Cl)cc2)C[C@H](C)N3C(C)=O)cc1 (stereo partly drawn) [Example 05IB1]

>  <Dmax (%)>
100

$$$$
>  <compound>
CCCC(NC(=O)/C(C#N)=C/c1cccc(Br)n1)c1ccc(OCC=NOCC(=O)NCCOCCOCCOCCNC(=O)c2ccc3c(c2)[C@H](Nc2ccc(Cl)cc2)C[C@H](C)N3C(C)=O)cc1 (stereo partly drawn) [Example 05IB2]

>  <Dmax (%)>
67

$$$$

----------
# system_tested: Brd4 (L) (Homo sapiens)
# Construct: endogenous in cells; host or cells: HEK293, HeLa
# assay_remarks: Concentration-dependent BET degradation, immunoblot, HeLa cells
# Assay type: cell-based
# condition_info: 6 h treatment, 1 nM-10 μM, read-out: Dmax (%) maximum degradation observed
quantity_kind: Dmax

>  <molecule>
CCCC(NC(=O)/C(C#N)=C/c1cccc(Br)n1)c1ccc(OCC=NOCC(=O)NCCOCCNC(=O)c2ccc3c(c2)[C@H](Nc2ccc(Cl)cc2)C[C@H](C)N3C(C)=O)cc1 (stereo partly drawn)

>  <result>
26 to 50%

$$$$
>  <molecule>
CCCC(NC(=O)C(C#N)Cc1cccc(Br)n1)c1ccc(OCCOCCOCCOCCOCCOCCOCCNC(=O)c2ccc(-c3ccc4c(c3)[C@H](Nc3ccc(Cl)cc3)C[C@H](C)N4C(C)=O)cc2)cc1 (stereo partly drawn)

>  <result>
≤ 25%

$$$$
>  <molecule>
CCCC(NC(=O)/C=C/c1cccc(Br)n1)c1ccc(OCCOCCOCCOCCOCCOCCOCCNC(=O)c2ccc(-c3ccc4c(c3)[C@H](Nc3ccc(Cl)cc3)C[C@H](C)N4C(C)=O)cc2)cc1 (stereo partly drawn)

>  <result>
≤ 25%

$$$$

----------
# system_tested: Brd3 (Homo sapiens)
# assay_remarks: Concentration-dependent BET degradation, immunoblot, HEK293 cells
# Format: cell-based
# Parameters: endogenous in cells; host or cells: HEK293
# condition_info: HEK293, Brd3, 6 h treatment, 1 nM-10 μM

>  <molecule>
CCCC(NC(=O)/C=C/c1cccc(Br)n1)c1ccc(OCCOCCOCCOCCOCCOCCOCCNC(=O)c2ccc(-c3ccc4c(c3)[C@H](Nc3ccc(Cl)cc3)C[C@H](C)N4C(C)=O)cc2)cc1 (stereo partly drawn) [Example 05IB11]

>  <DC50>
≤ 0.05 µM

$$$$
>  <molecule>
CCCC(NC(=O)/C(C#N)=C/c1cccc(Br)n1)c1ccc(OCC=NOCC(=O)NCCOCCOCCOCCNC(=O)c2ccc3c(c2)[C@H](Nc2ccc(Cl)cc2)C[C@H](C)N3C(C)=O)cc1 (stereo partly drawn) [Example 05IB2]

>  <DC50>
0.051 to 0.5 µM

$$$$
>  <molecule>
CCCC(NC(=O)/C(C#N)=C/c1cccc(Br)n1)c1ccc(OCCOCCOCCOCCOCCOCCOCCNC(=O)c2ccc(-c3ccc4c(c3)[C@H](Nc3ccc(Cl)cc3)C[C@H](C)N4C(C)=O)cc2)cc1 (stereo partly drawn) [Example 05IB6]

>  <DC50>
0.051 to 0.5 µM

$$$$
